test_summary: in vitro
Assay type: cell-based
condition_info: human
experimental_endpoint: CC50 at 3 days

compound: CS(=O)(=O)CCCn1c(Cn2c(=O)n(C3CC3)c3c(C(F)(F)F)cccc32)nc2cc(Cl)ccc21
CC50 at 3 days: > 100 µM

So for CS(=O)(=O)CCCn1c(Cn2c(=O)n(C3CC3)c3c(Cl)cccc32)nc2cc(Cl)ccc21 [Compound P2] , the logged CC50 at 3 days turned out to be > 100 µM

----------
Reported CC50 at 3 days values for the following compounds.
test_summary: in vitro
Assay type: cell-based
condition_info: human
Answer format: numeric, µM implied, no suffix.

compound_string: CS(=O)(=O)CCCn1c(Cn2c(=O)n(CC(F)(F)F)c3c(Cl)cccc32)nc2cc(Cl)ccc21
unit_name: µM
CC50 at 3 days: 69

Moving on to the next compound.
Memo: Cc1cccc2c1n(C1CC1)c(=O)n2Cc1nc2cc(Cl)ccc2n1CCCS(C)(=O)=O , reported CC50 at 3 days: 64.6

----------
test_summary: in vitro
Format: cell-based
condition_info: human
Below, each entry is listed with its recorded CC50 at 3 days.

compound: CS(=O)(=O)CCCn1c(Cn2c(=O)n(C3CC3)c3c(Cl)cncc32)nc2cc(Cl)ccc21 [Compound P1]
experimental_endpoint: CC50 at 3 days
reported_result: > 100 µM

So, CS(=O)(=O)CCCn1c(Cn2c(=O)n(CC(F)(F)F)c3c(Cl)cncc32)nc2cc(Cl)ccc21 ? Its CC50 at 3 days was > 100 µM

The reported value for Cc1cncc2c1n(C1CC1)c(=O)n2Cc1nc2cc(Cl)ccc2n1CCCS(C)(=O)=O in terms of CC50 at 3 days is > 100 µM
